Where do these numbers come from? They come from patent US20220267464A1.

Target: T1, human CEACAM5 (carcinoembryonic antigen, CEA) on cells (human, UniProt P06731 35-685)
T1 construct: endogenous on MKN45 gastric adenocarcinoma cells; full-length cDNA stably transfected in the CHO-K1 clones; also called huCEACAM5; MKN45 cells
T1 sequence: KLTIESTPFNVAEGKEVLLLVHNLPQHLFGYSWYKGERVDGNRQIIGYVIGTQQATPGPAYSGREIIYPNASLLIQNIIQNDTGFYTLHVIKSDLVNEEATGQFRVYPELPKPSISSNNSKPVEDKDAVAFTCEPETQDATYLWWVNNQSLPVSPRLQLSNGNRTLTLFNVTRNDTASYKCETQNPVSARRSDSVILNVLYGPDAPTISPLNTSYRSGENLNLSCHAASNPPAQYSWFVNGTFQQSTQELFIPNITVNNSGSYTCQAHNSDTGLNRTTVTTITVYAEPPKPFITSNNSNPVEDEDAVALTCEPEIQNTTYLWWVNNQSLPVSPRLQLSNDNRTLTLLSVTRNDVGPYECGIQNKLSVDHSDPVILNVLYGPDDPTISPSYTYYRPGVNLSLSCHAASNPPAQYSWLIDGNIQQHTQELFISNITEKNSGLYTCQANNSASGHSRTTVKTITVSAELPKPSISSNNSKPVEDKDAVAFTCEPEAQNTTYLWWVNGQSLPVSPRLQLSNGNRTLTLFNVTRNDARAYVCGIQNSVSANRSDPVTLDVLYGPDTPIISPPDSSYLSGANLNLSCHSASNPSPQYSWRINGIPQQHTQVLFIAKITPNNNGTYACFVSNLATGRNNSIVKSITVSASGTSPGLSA
Assay: flow cytometry, MKN45 cells
Set-up: unit not given beside the values
# AUC annotations
Give your answer as a number; write no unit.

{"columns": ["binder", "AUC"],
 "data": [
  ["P1AE3105 (antibody, IgG1, V domains shown, huIgG1 P329G LALA; also called MFE-H26 / MFE-L27; huMFE23-L27-H26) VH: QVQLVQSGAEVKKPGASVKVSCKASGFNIKDSYMHWVRQAPGQGLEWMGWIDPENGGTNYAQKFQGRVTMTTDTSISTAYMELSRLRSDDTAVYYCNEGTPTGPYYFDYWGQGTLVTVSS VL: EIQMTQSPSSLSASVGDRVTITCRASSSVPYMHWYQQKPGKAPKLLIYSTSNLASGVPSRFSGSGSGTDFTLTISSVQPEDFATYYCQQRSSYPLTFGGGTKLEIK", 55900]
]}

For P1AE3117 (antibody, IgG1, V domains shown, huIgG1 P329G LALA; also called MFE-H26 / MFE-L25) VH: QVQLVQSGAEVKKPGASVKVSCKASGFNIKDSYMHWVRQAPGQGLEWMGWIDPENGGTNYAQKFQGRVTMTTDTSISTAYMELSRLRSDDTAVYYCNEGTPTGPYYFDYWGQGTLVTVSS VL: EIQMTQSPSSLSASVGDRVTITCRASSSVSYMHWYQQKPGKAPKLLIYSTSNLASGVPSRFSGSGSGTDFTLTISSLQPEDFATYYCQQRSSYPLTFGGGTKLEIK the binder record lists AUC as 1180

Per the record, P1AE3094 (antibody, IgG1, V domains shown, huIgG1 P329G LALA; also called MFE-H25 / MFE-L29) VH: QVQLVQSGAEVKKPGASVKVSCKASGYTFKDSYMHWVRQAPGQGLEWMGWIDPENGDTEYAPKFQGRVTMTTDTSISTAYMELSRLRSDDTAVYYCNEGTPTGPYYFDYWGQGTLVTVSS VL: EIQMTQSPSSLSASVGDRVTITCRASSSVPYMHWLQQKPGKAPKLLIYSTSSLQSGVPSRFSGSGSGTDFTLTISSVQPEDFATYYCQQRSSYPLTFGGGTKLEIK has AUC of 6910
